Measured IC50, listed per entry.
- TARGET_DESC: BTK, recombinant human catalytic domain (aa 393-659) (Homo sapiens (Human), UniProt Q06187)
- Sequence (Q06187 393-659): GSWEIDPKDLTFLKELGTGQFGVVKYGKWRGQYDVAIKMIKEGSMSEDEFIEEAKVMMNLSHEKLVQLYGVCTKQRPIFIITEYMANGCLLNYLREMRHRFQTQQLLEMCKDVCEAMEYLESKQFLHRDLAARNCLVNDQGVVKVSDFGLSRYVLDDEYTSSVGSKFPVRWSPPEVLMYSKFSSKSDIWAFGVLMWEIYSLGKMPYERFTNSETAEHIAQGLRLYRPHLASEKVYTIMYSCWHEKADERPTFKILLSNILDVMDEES
- ASSAY_DETAILS: In vitro BTK kinase activity measured by time-resolved fluorescence resonance energy transfer (trFRET)
- Type: biochemical
- MEASUREMENT_CONDITIONS: read-out: Btk IC50

Below: 6 compounds and their reported IC50.
SMILES_CODE: C=CC(=O)N1CCC[C@@H](c2ncc(C(N)=O)c3[nH]ccc23)C1
MEASURED_METRIC: IC50
VALUE_REPORTED: < 100 nM
//
SMILES_CODE: CCC(=O)Nc1cccc(-c2ccc(C(N)=O)c3[nH]c(C4=CCN(S(C)(=O)=O)CC4)cc23)c1C
MEASURED_METRIC: IC50
VALUE_REPORTED: < 100 nM
//
SMILES_CODE: C=CC(=O)N1CCO[C@@H](c2ccc(C(N)=O)c3[nH]c(-c4cnn(C)c4)cc23)C1
MEASURED_METRIC: IC50
VALUE_REPORTED: < 100 nM
//
SMILES_CODE: C=CC(=O)N1CC(N(C)c2ccc(C(N)=O)c3[nH]c(C4=CCC(F)(F)CC4)cc23)C1
MEASURED_METRIC: IC50
VALUE_REPORTED: < 100 nM
//
SMILES_CODE: CC(C)(C)c1cc(C(=O)N[C@@H]2CCCN(c3ccc(C(N)=O)c4[nH]ccc34)C2)no1
MEASURED_METRIC: IC50
VALUE_REPORTED: 1000 to 10000 nM
//
SMILES_CODE: Cc1c(NC(=O)COc2ccccc2)cccc1-c1ccc(C(N)=O)c2[nH]c(C3=CCN(S(C)(=O)=O)CC3)cc12
MEASURED_METRIC: IC50
VALUE_REPORTED: < 100 nM

Quick check: IC50 of C=CC(=O)N1CC(Nc2cnc(C(N)=O)c3[nH]ccc23)C1 ?
< 100 nM

Same read-out for C=CC(=O)N(CC1CCCC1)c1cccc(-c2ccc(C(N)=O)c3[nH]ccc23)c1 ?
1000 to 10000 nM

---

- TARGET_DESC: BTK, recombinant human catalytic domain (aa 393-659) (Homo sapiens (Human), UniProt Q06187)
- ASSAY_DETAILS: In vitro BTK kinase activity measured by time-resolved fluorescence resonance energy transfer (trFRET)
- Type: biochemical
- MEASUREMENT_CONDITIONS: trFRET, 0.001 mM ATP, biotin-TYR1 peptide substrate; read-out: Btk IC50
pIC50: −log10 of the molar value.
Measured pIC50, listed per entry.

COMPOUND: Cc1ccc(-c2cc3c(-c4ccn[nH]4)ccc(C(N)=O)c3[nH]2)cc1 [A.8.1]
pIC50: 6.00 to 7.00
//
COMPOUND: C=CC(=O)Nc1cccc(-c2ccc(C(N)=O)c3[nH]c(-c4ccc(CN5CCOCC5)cc4)cc23)c1C [A.1.44]
pIC50: > 7.00
//
COMPOUND: C=CC(=O)N1CCCC(c2ccc(C(N)=O)c3[nH]ccc23)C1 (stereo not shown) [Example 25]
pIC50: 6.00 to 7.00
//
COMPOUND: C=CC(=O)Nc1cccc(-c2ccc(C(N)=O)c3[nH]c(-c4ccc5c(c4)CCO5)cc23)c1C [A.1.21]
pIC50: > 7.00
//
COMPOUND: CS(=O)(=O)N1CC=C(c2cc3c(-c4cccc(OCc5nccs5)c4)ccc(C(N)=O)c3[nH]2)CC1 [A.4.4]
pIC50: > 7.00

Quick check: pIC50 of COCCNC(=O)/C=C\C(=O)Nc1cccc(-c2ccc(C(N)=O)c3[nH]ccc23)c1 [D.9.1] ?
6.00 to 7.00

Same read-out for C=CC(=O)Nc1cccc(-c2ccc(C(N)=O)c3[nH]c(-c4c(C)n[nH]c4C)cc23)c1C [A.1.3] ?
6.00 to 7.00

Same read-out for C=CC(=O)Nc1cccc(-c2ccc(C(N)=O)c3[nH]c(-c4cnn(CCN5CCOCC5)c4)cc23)c1C [A.1.8] ?
> 7.00

Same read-out for Cc1noc(C)c1-c1ccc(C(N)=O)c2[nH]c(-c3ccc(F)cc3)cc12 [A.9.3] ?
6.00 to 7.00

Same read-out for Cc1c(NC(=O)c2ccc(C3CC3)cc2)cccc1-c1ccc(C(N)=O)c2[nH]c(C3=CCN(S(C)(=O)=O)CC3)cc12 [A.4.16] ?
> 7.00

Same read-out for CS(=O)(=O)N1CC=C(c2cc3c(N4CCC[C@@H](NC(=O)c5nccs5)C4)ccc(C(N)=O)c3[nH]2)CC1 [Example 13A] ?
> 7.00

Same read-out for Cc1c(NC(=O)c2nccs2)cccc1-c1ccc(C(N)=O)c2[nH]c(-c3cccnc3)cc12 [A.7.8] ?
> 7.00

Same read-out for C=CC(=O)Nc1cccc(-c2ccc(C(N)=O)c3[nH]c(-c4ccc(C(N)=O)cc4)cc23)c1C [A.1.45] ?
> 7.00

Same read-out for C=CC(=O)Nc1cccc(-c2ccc(C(N)=O)c3[nH]c(-c4cccc(C#N)c4)cc23)c1C [A.1.14] ?
> 7.00

Same read-out for Cc1c(-c2ccc(C(N)=O)c3[nH]c(-c4ccc(F)cc4)cc23)cccc1N1Cc2ccc(F)cc2C1=O [A.9.6] ?
> 7.00

Same read-out for C=CC(=O)N[C@H]1CC[C@H](c2ccc(C(N)=O)c3[nH]ccc23)C1 (relative stereo) [Example 11] ?
> 7.00

---

Measured pIC50, listed per entry.
- TARGET_DESC: BTK, recombinant human catalytic domain (aa 393-659) (Homo sapiens (Human), UniProt Q06187)
- ASSAY_DETAILS: In vitro BTK kinase activity measured by time-resolved fluorescence resonance energy transfer (trFRET)
- Type: biochemical
- MEASUREMENT_CONDITIONS: trFRET, 0.001 mM ATP, biotin-TYR1 peptide substrate; read-out: Btk IC50
pIC50: −log10 of the molar value.

COMPOUND: C=CC(=O)Nc1cccc(-c2ccc(C(N)=O)c3[nH]c(-c4ccc(C(=O)N5CCN(C)CC5)cc4)cc23)c1C
VALUE_REPORTED: > 7.00

COMPOUND: Cc1c(NC(=O)c2ccc(C(C)(C)C)cc2)cccc1-c1ccc(C(N)=O)c2[nH]c(-c3cccnc3)cc12
VALUE_REPORTED: > 7.00

COMPOUND: CS(=O)(=O)N1CC=C(c2cc3c(N4CC[C@@H](O)[C@H](NC(=O)c5nccs5)C4)ccc(C(N)=O)c3[nH]2)CC1 (relative stereo)
VALUE_REPORTED: > 7.00

Quick check: pIC50 of NC(=O)c1ccc(-c2cccc(NC(=O)/C=C/C(=O)O)c2)c2cc[nH]c12 ?
5.00 to 6.00

---

- TARGET_DESC: BTK, recombinant human catalytic domain (aa 393-659) (Homo sapiens (Human))
- ASSAY_DETAILS: In vitro BTK kinase activity measured by time-resolved fluorescence resonance energy transfer (trFRET)
- Format: biochemical
- MEASUREMENT_CONDITIONS: trFRET, 0.001 mM ATP, biotin-TYR1 peptide substrate; read-out: Btk IC50
Measured IC50, listed per entry.

COMPOUND: C=CC(=O)N1CCC[C@H](c2ccc(C(N)=O)c3[nH]ccc23)C1 [30 (R)]
IC50: 100 to 1000 nM

COMPOUND: C=CC(=O)Nc1cccc(-c2ccc(C(N)=O)c3[nH]ccc23)c1 [A.5.2]
IC50: 100 to 1000 nM

COMPOUND: Cc1c(-c2ccc(C(N)=O)c3[nH]c(C4=CCOCC4)cc23)cccc1-n1cnc2ccc(F)cc2c1=O [A.11.2]
IC50: < 100 nM

COMPOUND: C/C=C/C(=O)NCc1ccccc1-c1cc2c(-c3cccc(NC(=O)c4nccs4)c3C)ccc(C(N)=O)c2[nH]1 [D.1.9]
IC50: 1000 to 10000 nM

COMPOUND: C=CS(=O)(=O)Nc1cccc(-c2ccc(C(N)=O)c3[nH]ccc23)c1 [I.1]
IC50: < 100 nM

COMPOUND: C=CC(=O)Nc1cccc(-c2ccc(C(N)=O)c3[nH]c(-c4ccc(C(=O)OC)cc4)cc23)c1C [A.1.20]
IC50: < 100 nM

COMPOUND: C=CC(=O)Nc1cccc(-c2ccc(C(N)=O)c3[nH]c(-c4ccc(C(=O)N(C)C)cc4)cc23)c1C [A.1.35]
IC50: < 100 nM

Quick check: IC50 of C=CC(=O)Nc1cccc(-c2ccc(C(N)=O)c3[nH]c(-c4cn(C)nc4C)cc23)c1C [A.1.5] ?
< 100 nM

---

- TARGET_DESC: BTK, recombinant human catalytic domain (aa 393-659) (Homo sapiens (Human), UniProt Q06187)
- ASSAY_DETAILS: In vitro BTK kinase activity measured by time-resolved fluorescence resonance energy transfer (trFRET)
- Format: biochemical
- MEASUREMENT_CONDITIONS: trFRET, 0.001 mM ATP, biotin-TYR1 peptide substrate; read-out: Btk IC50
MEASURED_METRIC: IC50

Below: 6 compounds and their reported IC50.
COMPOUND: CC(=O)N1CC=C(c2cc3c(-c4cccc(NC(=O)c5ccc(C(C)(C)C)cc5)c4C)ccc(C(N)=O)c3[nH]2)CC1
IC50: < 100 nM

COMPOUND: Cc1ccc(-c2cc3c(-c4cccs4)ccc(C(N)=O)c3[nH]2)cc1
IC50: 100 to 1000 nM

COMPOUND: C=C(C)C(=O)NCc1ccccc1-c1cc2c(-c3cccc(NC(=O)c4nccs4)c3C)ccc(C(N)=O)c2[nH]1
IC50: 1000 to 10000 nM

COMPOUND: Cc1c(NC(=O)c2nccs2)cccc1-c1ccc(C(N)=O)c2[nH]c(-c3ccccc3CNC(=O)CCN3CCCCC3)cc12
IC50: 1000 to 10000 nM

COMPOUND: C=CC(=O)N1CCCC(c2ccc(C(N)=O)c3[nH]c(-c4cnn(C)c4)cc23)C1 (centres unmarked)
IC50: < 100 nM

COMPOUND: CC#CC(=O)Nc1c[nH]c2c(C(N)=O)ccc(-c3cccc(NC(=O)c4nccs4)c3C)c12
IC50: 1000 to 10000 nM

Quick check: IC50 of Cc1ccc(-c2cc3c(-c4ccn[nH]4)ccc(C(N)=O)c3[nH]2)cc1 [A.8.8] ?
100 to 1000 nM

Same read-out for CS(=O)(=O)N1CC=C(c2cc3c(-c4ccccc4N)ccc(C(N)=O)c3[nH]2)CC1 ?
< 100 nM
